system: MDA-MB-231; experiment: cells; conditions: Homo sapiens, MDA-MB-231, 72 h
READOUT_TYPE: IC50 (µM)
Express your answer in µM, writing the number without its unit.

Output reported IC50 of the molecule Cc1ncsc1-c1ccc([C@H](C)NC(=O)[C@@H]2C[C@@H](O)CN2C(=O)[C@@H](NC(=O)C2(c3ccc(-c4cc(-c5ccccc5O)nnc4N)cc3)CC2)C(C)(C)C)cc1 on MDA-MB-231.
24.3
